Values were extracted from patent US20260248972A1.

- ASSAY EXPLANATION: in vivo
- ASSAY CONDITIONS: BALB/c nude, mouse, in vivo, iv, total radioactivity, % ID/g Stomach
- Experimental: To a 0.5 M NaOAc buffer (20-50 μL, pH=4.5) was added 4 μL of exemplary or comparator compound in DMSO stock solution (2000 μM) and 2 mCi ^177Lu (ITM Isotope Technologies Munich), the resulting mixture was heated to 95° C. for 15 min. The resulting product was analyzed by radio-TLC and radio-HPLC (column: Shim-pack GIST 5 μm 4.6*150 mm; buffer A: 0.2% formic acid H2O; buffer B: 0.1% formic acid acetonitrile; flow rate: 1 mL/min; gradient: 0-5 min: 10% B to 95% B; then 5-8 min: 95% B). […]
REPORTED METRIC: tissue uptake at 24 h (%ID/g)
Unit %ID/g implied. Number only.

Query: tissue uptake at 24 h; subject: C[C@@H](O)[C@H](NC(=O)[C@@H]1CSSC[C@H](NC(=O)[C@@H](Cc2ccccc2)NC(=O)[C@H](CCCCNC(=O)COCCOCCNC(=O)c2cccc(NC(=O)N[C@@H]3CN(C4CCCCC4)c4ccccc4N(CC(=O)C(C)(C)C)C3=O)c2)NC(=O)CN2CCN(CC(=O)O)CCN(CC(=O)O)CCN(CC(=O)O)CC2)C(=O)N[C@@H](Cc2ccc(O)cc2)C(=O)N[C@H](Cc2c[nH]c3ccccc23)C(=O)N[C@@H](CCCCN)C(=O)N[C@@H]([C@@H](C)O)C(=O)N1)C(=O)O [^177Lu-I-36, metal not drawn]
Result: 5.96

* * *

- ASSAY EXPLANATION: in vivo
- ASSAY CONDITIONS: BALB/c nude, mouse, in vivo, iv, total radioactivity, % ID/g Kidney
- Method: To a 0.5 M NaOAc buffer (20-50 μL, pH=4.5) was added 4 μL of exemplary or comparator compound in DMSO stock solution (2000 μM) and 2 mCi ^177Lu (ITM Isotope Technologies Munich), the resulting mixture was heated to 95° C. for 15 min. The resulting product was analyzed by radio-TLC and radio-HPLC (column: Shim-pack GIST 5 μm 4.6*150 mm; buffer A: 0.2% formic acid H2O; buffer B: 0.1% formic acid acetonitrile; flow rate: 1 mL/min; gradient: 0-5 min: 10% B to 95% B; then 5-8 min: 95% B). […]
Listed below: tissue uptake at 4 h values for each entry.

C[C@@H](O)[C@H](NC(=O)[C@@H]1CSSC[C@H](NC(=O)[C@@H](Cc2ccccc2)NC(=O)COCCOCCNC(=O)COCCOCCNC(=O)[C@H](CCCCNC(=O)c2cccc(NC(=O)N[C@@H]3CN(C4CCCCC4)c4ccccc4N(CC(=O)C(C)(C)C)C3=O)c2)NC(=O)CN2CCN(CC(=O)O)CCN(CC(=O)O)CCN(CC(=O)O)CC2)C(=O)N[C@@H](Cc2ccc(O)cc2)C(=O)N[C@H](Cc2c[nH]c3ccccc23)C(=O)N[C@@H](CCCCN)C(=O)N[C@@H]([C@@H](C)O)C(=O)N1)C(=O)O [Compound 177Lu-I-39, metal not drawn] = 25.7 %ID/g

// switching to the query compound
Query: tissue uptake at 4 h; subject: C[C@@H](O)[C@H](NC(=O)[C@@H]1CSSC[C@H](NC(=O)[C@@H](Cc2ccccc2)NC(=O)CN2CCN(CC(=O)O)CCN(CC(=O)O)CCN(CC(=O)O)CC2)C(=O)N[C@@H](Cc2ccc(O)cc2)C(=O)N[C@H](Cc2c[nH]c3ccccc23)C(=O)N[C@@H](CCCCN)C(=O)N[C@@H]([C@@H](C)O)C(=O)N1)C(=O)O [^177Lu-C-1, metal not drawn, reference compound]
Result: 3.88 %ID/g
